cond: in methanol, 303.15 K
measure: solubility (mole fraction)

{"smilesRepresentation": "Cc1cc(C)[nH]n1", "measure": "solubility (mole fraction)", "result": 0.158}

###

cond: in ethyl acetate, 300.65 K
measure: solubility (mole fraction)

{"smilesRepresentation": "Cc1cc(C)[nH]n1", "measure": "solubility (mole fraction)", "result": 0.128}

###

cond: in ethanol, 293.15 K

{"smilesRepresentation": "Cc1cc(C)[nH]n1", "solubility (mole fraction)": 0.148}

###

cond: in ethyl acetate, 303.15 K
measure: solubility (mole fraction)

{"smilesRepresentation": "Cc1cc(C)[nH]n1", "result": 0.144}

###

cond: in acetone, 298.15 K
measure: solubility (mole fraction)

{"smilesRepresentation": "Cc1cc(C)[nH]n1", "measure": "solubility (mole fraction)", "numericValue": 0.116}

###

cond: in isopropanol, 288.15 K

{"smilesRepresentation": "Cc1cc(C)[nH]n1", "solubility (mole fraction)": 0.128}

###

cond: in ethanol, 288.15 K
measure: solubility (mole fraction)

{"smilesRepresentation": "Cc1cc(C)[nH]n1", "measure": "solubility (mole fraction)", "numericValue": 0.133}

###

cond: in methanol, 313.15 K

{"smilesRepresentation": "Cc1cc(C)[nH]n1", "solubility (mole fraction)": 0.19}

###

cond: in isopropanol, 285.65 K

{"smilesRepresentation": "Cc1cc(C)[nH]n1", "solubility (mole fraction)": 0.121}

###

cond: in methanol, 283.15 K
measure: solubility (mole fraction)

{"smilesRepresentation": "Cc1cc(C)[nH]n1", "numericValue": 0.107}

###

cond: in isopropanol, 283.15 K

{"smilesRepresentation": "Cc1cc(C)[nH]n1", "solubility (mole fraction)": 0.115}

###

cond: in acetone, 313.15 K
measure: solubility (mole fraction)

{"smilesRepresentation": "Cc1cc(C)[nH]n1", "numericValue": 0.213}

###

cond: in ethyl acetate, 298.15 K
measure: solubility (mole fraction)

{"smilesRepresentation": "Cc1cc(C)[nH]n1", "numericValue": 0.113}

###

cond: in acetonitrile, 285.65 K

{"smilesRepresentation": "Cc1cc(C)[nH]n1", "solubility (mole fraction)": 0.0312}

###

cond: in methanol, 300.65 K
measure: solubility (mole fraction)

{"smilesRepresentation": "Cc1cc(C)[nH]n1", "result": 0.15}

###

cond: in methanol, 288.15 K
measure: solubility (mole fraction)

{"smilesRepresentation": "Cc1cc(C)[nH]n1", "measure": "solubility (mole fraction)", "numericValue": 0.118}

###

cond: in acetonitrile, 305.65 K

{"smilesRepresentation": "Cc1cc(C)[nH]n1", "solubility (mole fraction)": 0.0806}

###

cond: in n-propanol, 308.15 K
measure: solubility (mole fraction)

{"smilesRepresentation": "Cc1cc(C)[nH]n1", "numericValue": 0.203}

###

cond: in n-butanol, 305.65 K

{"smilesRepresentation": "Cc1cc(C)[nH]n1", "solubility (mole fraction)": 0.224}

###

cond: in toluene, 308.15 K

{"smilesRepresentation": "Cc1cc(C)[nH]n1", "solubility (mole fraction)": 0.133}

###

cond: in ethyl acetate, 305.65 K
measure: solubility (mole fraction)

{"smilesRepresentation": "Cc1cc(C)[nH]n1", "result": 0.161}

###

cond: in ethyl acetate, 288.15 K
measure: solubility (mole fraction)

{"smilesRepresentation": "Cc1cc(C)[nH]n1", "numericValue": 0.0663}

Source: BigSolDB 2.1
